Data provenance is patent US20040259866A1.

# Target: N-type calcium channels (α1B+α2δ+β1b cDNA subunits) (Rattus norvegicus)
# Sequence (Q02294 whole entry): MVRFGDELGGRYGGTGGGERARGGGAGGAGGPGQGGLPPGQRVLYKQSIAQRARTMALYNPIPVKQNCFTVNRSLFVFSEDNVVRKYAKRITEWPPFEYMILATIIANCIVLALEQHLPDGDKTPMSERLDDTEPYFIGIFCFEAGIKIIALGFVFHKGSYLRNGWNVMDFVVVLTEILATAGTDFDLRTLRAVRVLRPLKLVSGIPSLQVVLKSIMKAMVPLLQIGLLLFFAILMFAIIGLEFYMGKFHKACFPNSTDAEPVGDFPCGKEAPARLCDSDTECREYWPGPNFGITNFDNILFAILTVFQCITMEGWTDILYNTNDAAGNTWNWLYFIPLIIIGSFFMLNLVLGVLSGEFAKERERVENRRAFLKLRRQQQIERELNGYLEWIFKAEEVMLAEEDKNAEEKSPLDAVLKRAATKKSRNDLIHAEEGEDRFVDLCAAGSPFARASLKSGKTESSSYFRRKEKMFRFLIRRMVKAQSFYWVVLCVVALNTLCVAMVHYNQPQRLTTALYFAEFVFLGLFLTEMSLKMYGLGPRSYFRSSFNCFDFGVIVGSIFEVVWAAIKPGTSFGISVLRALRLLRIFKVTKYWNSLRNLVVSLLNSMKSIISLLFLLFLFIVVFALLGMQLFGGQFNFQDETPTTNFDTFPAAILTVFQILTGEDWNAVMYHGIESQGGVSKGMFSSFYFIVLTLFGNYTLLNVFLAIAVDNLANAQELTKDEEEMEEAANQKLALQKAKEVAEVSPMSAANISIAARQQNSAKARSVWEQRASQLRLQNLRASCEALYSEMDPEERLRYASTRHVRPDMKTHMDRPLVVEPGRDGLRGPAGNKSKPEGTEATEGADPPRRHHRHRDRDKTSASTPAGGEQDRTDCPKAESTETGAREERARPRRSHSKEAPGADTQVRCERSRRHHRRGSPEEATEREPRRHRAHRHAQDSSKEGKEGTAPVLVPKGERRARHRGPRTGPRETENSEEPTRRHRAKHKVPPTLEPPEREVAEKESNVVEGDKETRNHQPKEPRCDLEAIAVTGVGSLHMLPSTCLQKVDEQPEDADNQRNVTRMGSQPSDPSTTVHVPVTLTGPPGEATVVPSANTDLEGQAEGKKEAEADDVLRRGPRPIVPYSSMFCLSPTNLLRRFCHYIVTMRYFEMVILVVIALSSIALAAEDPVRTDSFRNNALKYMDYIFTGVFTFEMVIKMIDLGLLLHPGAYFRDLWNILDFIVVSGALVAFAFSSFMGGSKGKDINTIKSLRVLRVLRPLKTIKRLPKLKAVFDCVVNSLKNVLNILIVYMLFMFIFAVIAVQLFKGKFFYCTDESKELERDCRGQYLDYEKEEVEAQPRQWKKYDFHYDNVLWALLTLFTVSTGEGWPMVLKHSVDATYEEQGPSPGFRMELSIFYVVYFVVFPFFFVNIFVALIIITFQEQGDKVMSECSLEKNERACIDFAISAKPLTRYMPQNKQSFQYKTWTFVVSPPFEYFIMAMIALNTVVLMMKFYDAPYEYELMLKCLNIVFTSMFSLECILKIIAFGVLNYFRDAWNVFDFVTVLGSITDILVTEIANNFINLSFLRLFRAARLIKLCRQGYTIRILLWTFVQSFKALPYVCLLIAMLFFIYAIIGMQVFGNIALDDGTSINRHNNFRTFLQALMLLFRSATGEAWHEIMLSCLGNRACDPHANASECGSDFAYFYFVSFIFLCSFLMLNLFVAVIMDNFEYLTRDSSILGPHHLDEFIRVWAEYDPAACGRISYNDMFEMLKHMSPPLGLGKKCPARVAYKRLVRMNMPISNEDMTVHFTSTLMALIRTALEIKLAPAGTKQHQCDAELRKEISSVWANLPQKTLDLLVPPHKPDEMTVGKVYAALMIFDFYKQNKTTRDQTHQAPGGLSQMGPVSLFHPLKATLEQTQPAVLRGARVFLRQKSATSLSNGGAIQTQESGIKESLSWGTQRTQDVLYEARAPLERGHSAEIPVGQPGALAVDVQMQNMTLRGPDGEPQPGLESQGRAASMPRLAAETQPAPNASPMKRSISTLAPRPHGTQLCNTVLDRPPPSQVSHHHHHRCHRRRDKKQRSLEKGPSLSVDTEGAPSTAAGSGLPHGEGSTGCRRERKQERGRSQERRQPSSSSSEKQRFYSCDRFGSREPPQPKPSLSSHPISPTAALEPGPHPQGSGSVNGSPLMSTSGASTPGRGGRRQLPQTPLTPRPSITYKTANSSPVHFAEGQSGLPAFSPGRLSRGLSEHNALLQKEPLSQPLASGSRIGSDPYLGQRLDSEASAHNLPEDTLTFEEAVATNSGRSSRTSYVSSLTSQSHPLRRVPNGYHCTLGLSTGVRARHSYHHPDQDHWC
# Protocol summary: Selectivity patch clamp, N-type channels in HEK 293 (Example 7)
# Experimental context: Tested at 0.1 Hz, 5 mM Ba2+
Response field label: string, one of fulfilled (IC50 strictly below 200 nM) or not fulfilled.

Please review the following examples before continuing.
{"Compound": "CCOC(=O)C1CN(C(c2ccccc2)c2ccccc2)CCN1C(=O)CC(c1ccccc1)c1ccccc1 (stereo not drawn)", "Answer label": "fulfilled"}
{"Compound": "O=C(CC(c1ccccc1)c1ccccc1)N1CCN(C(c2ccccc2)c2ccc(C(F)(F)F)cc2)CC1 (stereo not drawn) [Compound P1]", "Answer label": "fulfilled"}
{"Compound": "COc1ccc(C(c2ccc(C(F)(F)F)cc2)N2CCN(C(=O)CC(c3ccccc3)c3ccccc3)CC2)cc1 (stereo not drawn)", "Answer label": "fulfilled"}
{"Compound": "O=C(CC(c1ccccc1)c1ccccc1)N1CCN(C(c2ccccc2)c2ccccc2Cl)CC1 (stereo not drawn)", "Answer label": "not fulfilled"}

Consider the additional compound presented here.
# input Lab log: compare recorded IC50 with 200 nM; is it strictly lower for CC(C)(C)c1cc(C(c2ccccc2)N2CCN(C(=O)CC(c3ccccc3)c3ccccc3)CC2)cc(C(C)(C)C)c1O (stereo not drawn) ?
# output not fulfilled
